meta.source: paper PMC3726482

Attribute: Km
Target: EF (edema factor) (Bacillus anthracis, UniProt P40136)
Construct: gene cya
Sequence (P40136 whole entry, looked up): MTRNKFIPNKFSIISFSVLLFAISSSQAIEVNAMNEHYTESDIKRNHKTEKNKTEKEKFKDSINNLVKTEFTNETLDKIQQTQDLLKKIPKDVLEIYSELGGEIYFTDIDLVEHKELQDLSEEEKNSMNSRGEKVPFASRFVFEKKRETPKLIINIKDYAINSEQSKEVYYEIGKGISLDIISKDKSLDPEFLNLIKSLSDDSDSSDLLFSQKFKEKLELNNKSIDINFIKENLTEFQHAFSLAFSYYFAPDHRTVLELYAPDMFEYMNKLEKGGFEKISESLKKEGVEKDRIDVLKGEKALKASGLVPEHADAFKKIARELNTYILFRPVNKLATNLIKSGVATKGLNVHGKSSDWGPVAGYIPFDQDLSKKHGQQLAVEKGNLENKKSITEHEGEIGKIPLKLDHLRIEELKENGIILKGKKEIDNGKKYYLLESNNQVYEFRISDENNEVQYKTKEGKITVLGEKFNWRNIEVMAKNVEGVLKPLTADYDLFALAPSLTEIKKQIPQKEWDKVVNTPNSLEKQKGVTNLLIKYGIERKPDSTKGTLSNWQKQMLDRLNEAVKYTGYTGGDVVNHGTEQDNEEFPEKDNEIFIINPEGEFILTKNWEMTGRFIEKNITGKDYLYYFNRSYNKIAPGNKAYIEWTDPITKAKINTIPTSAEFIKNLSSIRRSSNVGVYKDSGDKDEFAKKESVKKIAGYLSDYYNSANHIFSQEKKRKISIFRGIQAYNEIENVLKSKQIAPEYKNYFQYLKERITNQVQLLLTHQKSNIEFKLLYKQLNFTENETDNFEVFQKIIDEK
Assay type: biochemical
Details: read-out: EF / KM
Recorded Metric: Km (µM)

{"columns": ["Smiles Text", "Recorded Number"],
 "data": [
  ["O=P(O)(O)OP(=O)(O)OP(=O)(O)OC[C@H]1O[C@@H](n2cnc3c(O)ncnc32)[C@H](O)[C@@H]1O", 507],
  ["Nc1nc2c(ncn2[C@@H]2O[C@H](COP(=O)(O)OP(=O)(O)OP(=O)(O)O)[C@@H](O)[C@H]2O)c(=O)[nH]1", 85],
  ["Nc1ccn([C@@H]2O[C@H](COP(=O)(O)OP(=O)(O)OP(=O)(O)O)[C@@H](O)[C@H]2O)c(=O)n1", 367],
  ["Nc1ncnc2c1ncn2[C@@H]1O[C@H](COP(=O)(O)OP(=O)(O)OP(=O)(O)O)[C@@H](O)[C@H]1O", 78.1],
  ["O=c1ccn([C@@H]2O[C@H](COP(=O)(O)OP(=O)(O)OP(=O)(O)O)[C@@H](O)[C@H]2O)c(=O)[nH]1", 792]
]}
